target: T1, human MSLN-FL-his protein (human, UniProt Q13421 296-580); assay: ELISA on coated antigen, antibody 0.001 nM
T1 construct: Made in HEK293E cells, purified on nickel column; it is put last here; also called human MSLN full-length protein; hMSLN-FL-his; not shown: His tag
T1 sequence (Q13421 other isoform, or with tags, fused parts or gaps): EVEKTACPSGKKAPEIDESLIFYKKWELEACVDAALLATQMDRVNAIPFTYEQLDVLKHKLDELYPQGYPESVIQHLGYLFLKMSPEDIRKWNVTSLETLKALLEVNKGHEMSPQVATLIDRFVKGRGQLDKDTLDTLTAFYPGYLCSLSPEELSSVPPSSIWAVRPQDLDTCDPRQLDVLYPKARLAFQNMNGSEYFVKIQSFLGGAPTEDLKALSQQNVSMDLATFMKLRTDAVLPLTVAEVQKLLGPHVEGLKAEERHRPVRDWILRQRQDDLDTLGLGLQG
So I've got a bunch of binders here, and I need their OD450 values.
Field format: number, assumed OD, no unit text.

Returns the measured OD450 for the input binder. Input: S009-F8-36.12 (antibody, human IgG1, kappa, V domains shown, Human-murine chimeric antibody, human IgG1 heavy and kappa light constant regions) VH: EVQLQQSGPELVKPGASVKISCKASGYTFTDYYMNWVKQSHGKSLEWIGDINPNNGGTSYNQKFKGKATLTVDKSSSTAYMELRSLTSEDSAVYYCASWGYGSSSRGYFDYWGQGTTLTVSS VL: QIVLSQSPAILSASPGEKVTMTCRASSSVSYMHWYQQKPGSSPKPWIYATSNLASGVPARFSGSGSGTSYSLTISRVEAEDAATYYCQQWSSNPWTFGGGTKLEIKR 0.06

Returns the measured OD450 for the input binder. Input: S009-F8-24.14 (antibody, human IgG1, kappa, V domains shown, Human-murine chimeric antibody, human IgG1 heavy and kappa light constant regions) VH: EFQLQQSGPELVKPGASVKISCKASGYSFTDYNMNWVKLSNGKSLEWIGVIIPNYGTSSYNQKFKGKATLTVDQSSSTAYMQLNSLTSEDSAVYYCARWDNYYGSSLDYWGQGTTLTVSS VL: DIVMTQSQKFMSTTVGDRVSITCKASQNVGTAVAWYQQKPGQSPKLLIYSASNRYTGVPDRFTGSGSGTDFILTISNMQSEDLADYFCQQYSSYPLTFGAGTKLELKR 0.18

Returns the measured OD450 for the input binder. Input: S009-F8-12.13 (antibody, human IgG1, kappa, V domains shown, Human-murine chimeric antibody, human IgG1 heavy and kappa light constant regions) VH: QVQLQQPGAELVKPGASVKLSCKASGYTFTSYWMHWVKQRPGQGLEWIGMIHPNSGSTNYNEKFKSKATLTVDKSSSTAYMQLSSLTSEDSAVYYCARRTPIITLVGHWYFDVWGTGTTVTVSS VL: DIVMTQSHKFMSTSVGDRVSITCKASQDVGTAVAWYQQKPGQSPKLLIYWASTRHTGVPDRFTGSGSGTDFTLTISNVQSEDLADYFCQQYSSYPLTFGAGTKLELKR 0.49
